# maps each entry to its Peak time
Method Summary: Comparative pharmacokinetics study in rats
Assay type: in vivo, SD male rats
Measurement Parameters: rat, oral 10 mg/kg
Measured Quantity: Peak time (h)

1. CCCCOCCOc1ccc(-c2ccc(OC)c(/C=C/C(=O)Nc3ccc([S@+]([O-])Cc4c(C)ncn4CC)cc3)c2)cc1 | 3.0
2. CCCCOCCOc1ccc(-c2ccc(OCC)c(/C=C/C(=O)Nc3ccc([S@+]([O-])Cc4c(C)ncn4CC)cc3)c2)cc1 | 5.0
3. CCCCOCCOc1ccc(-c2cc(F)c(OC)c(/C=C/C(=O)Nc3ccc([S@+]([O-])Cc4c(C)ncn4CC)cc3)c2)cc1 | 3.0
4. CCCCOCCOc1ccc(-c2ccc(OC)c(/C=C/C(=O)Nc3ccc([S@@+]([O-])Cc4cncn4CCC)cc3)c2)cc1 | 1.5
5. CCCCOCCOc1ccc(-c2ccc3c(c2)/C=C(/C(=O)Nc2ccc([S@@+]([O-])Cc4cncn4CCC)cc2)CCCN3CC(C)C)cc1 [(Cenicriviroc), Cenicriviroc, reference compound] | 4.0
